Biological target: T1, recombinant human L-SIGN (L-SIGNFc fusion protein) (human, UniProt Q9H2X3 78-399)
T1 construct: also called DC-SIGNR; human DC-SIGNR; not shown: Fc part of the fusion
T1 sequence (looked up): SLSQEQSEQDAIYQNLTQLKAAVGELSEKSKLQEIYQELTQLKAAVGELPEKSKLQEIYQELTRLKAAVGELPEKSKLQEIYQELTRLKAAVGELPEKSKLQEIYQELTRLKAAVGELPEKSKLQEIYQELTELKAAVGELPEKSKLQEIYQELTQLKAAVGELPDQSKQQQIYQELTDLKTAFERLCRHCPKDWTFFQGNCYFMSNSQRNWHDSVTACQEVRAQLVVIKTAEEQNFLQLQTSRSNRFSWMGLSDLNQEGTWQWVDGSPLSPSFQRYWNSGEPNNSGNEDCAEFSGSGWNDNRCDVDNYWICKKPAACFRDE
Experiment: ELISA, recombinant L-SIGN
endpoint.name: OD405 (OD405)
Write it as a number; the unit OD405 goes unstated.

Query: Which OD405 value is on record for IgG1k clone D8 (Fab, V domains shown, phage-Fab screening) VH: EVQLQQSGPELEKPGASVKISCKASGYSFTGYNMNWVKQSNGKSLEWIGNIDPYYGGSSYNQKFKGKATLTVDKSSSTAYMQLKSLTSEDSAVYYCARTATALYTMDYWGQGTSVTVSS VL: EIVLTQSPAIMSASPGEKVTMTCRASSSVSSSYLHWYQQKSGASPKLWIYSTSNLASGVPARFSGSGSGTSYSLTISSVEAEDAATYYCQQYSGYPGTFGGGTKLEIK ?
Result: 2.1
